Listed next: entries and their corresponding % Inhibition.
System: P. falciparum stage V gametocytes
Set-up: BacTiter-Glo ATP luminescence viability of purified stage V gametocytes in 384-well plates, per cent inhibition versus DMSO
protocol conditions: 48 h, 5 µM; inhibitor
The whole screen tested about 13,000 compounds, of which about 3,200 (25%) showed an effect of 50% or more. The list shows a part of the results.
recorded endpoint: % Inhibition (%)

[[record]]
compound = "CC(C)Cn1ncc2c3c(N)nc(N)nc3ccc21 [TCMDC-137970]"
target_under_test = "P. falciparum stage V gametocytes"
value_observed = 3.163

[[record]]
compound = "O=C(Cc1cnc[nH]1)Nc1cccc(-c2ccc(-c3nc4ccc(F)cc4[nH]3)cc2)c1 [TCMDC-136946]"
target_under_test = "P. falciparum stage V gametocytes"
value_observed = 4.671

[[record]]
compound = "CCOc1cc(C(=O)NCCN(C(C)C)C(C)C)ccc1-c1nc2ccc(Cl)cc2[nH]1 [TCMDC-140910]"
target_under_test = "P. falciparum stage V gametocytes"
value_observed = 18.37

[[record]]
compound = "OC(CNCc1ccccc1OCc1ccccc1)c1cccc(C(F)(F)F)c1 (stereo not shown) [TCMDC-140299]"
target_under_test = "P. falciparum stage V gametocytes"
value_observed = 10.62

[[record]]
compound = "CN1CCN(c2ccnc3ccc(NC(=O)N(C)c4ccc(Cl)c(Cl)c4)cc23)CC1 [TCMDC-139453]"
target_under_test = "P. falciparum stage V gametocytes"
value_observed = 8.724

[[record]]
compound = "CN1CCC(C(=O)Nc2cccc(-c3ccc(-c4nc5ccc(F)cc5[nH]4)cc3)c2)CC1 [TCMDC-132185]"
target_under_test = "P. falciparum stage V gametocytes"
value_observed = 12.21

[[record]]
compound = "O=c1ccc(-c2nc3cc(Cl)c(Cl)cc3n2Cc2ccc(Cl)cc2Cl)c[nH]1 [TCMDC-124041]"
target_under_test = "P. falciparum stage V gametocytes"
value_observed = 6.921

[[record]]
compound = "CN1CCC(C(=O)Nc2cccc(-c3cccc(-c4nc5ccc(F)cc5[nH]4)c3)c2)CC1 [TCMDC-132181]"
target_under_test = "P. falciparum stage V gametocytes"
value_observed = 91.35

[[record]]
compound = "Cc1c(C(=O)Nc2cc(Sc3ccc(F)cc3)cc([N+](=O)[O-])c2)sc2ncn(Cc3ccccc3F)c(=O)c12 [TCMDC-125703]"
target_under_test = "P. falciparum stage V gametocytes"
value_observed = 1.963

[[record]]
compound = "CN1CCN(CC(=O)Nc2ccc(-c3ccc(-c4nc5ccccc5[nH]4)cc3)cc2)CC1 [TCMDC-136979]"
target_under_test = "P. falciparum stage V gametocytes"
value_observed = -9.366

[[record]]
compound = "N#Cc1ccccc1N1CCN(C2CCC(NC(=O)c3n[nH]c4cc(C(F)(F)F)ccc34)CC2)CC1 (stereo not shown) [TCMDC-134100]"
target_under_test = "P. falciparum stage V gametocytes"
value_observed = -13.75

[[record]]
compound = "CS(=O)(=O)NCCCNCc1cccc(-c2csc(-c3nc4ccccc4[nH]3)c2)c1 [TCMDC-133089]"
target_under_test = "P. falciparum stage V gametocytes"
value_observed = -10.78

[[record]]
compound = "CC(C)(C)Nc1cc(C(=O)N[C@@H](Cc2ccccc2)[C@H](O)CNC2CCOCC2)cc(N2CCCCS2(=O)=O)c1 [TCMDC-135686]"
target_under_test = "P. falciparum stage V gametocytes"
value_observed = 8.531

[[record]]
compound = "CN1CCN(CC(=O)Nc2cccc(-c3ccc(-c4nc5ccc(F)cc5[nH]4)cc3)c2)CC1 [TCMDC-136978]"
target_under_test = "P. falciparum stage V gametocytes"
value_observed = 78.56

[[record]]
compound = "CN1CCC(C(=O)Nc2ccc(-c3cccc(-c4nc5ccc(F)cc5[nH]4)c3)cc2)CC1 [TCMDC-132180]"
target_under_test = "P. falciparum stage V gametocytes"
value_observed = 28.01

[[record]]
compound = "COc1ccc(C(=O)c2ccc3[nH]cc(C4=CCN(C)CC4)c3c2)cc1 [TCMDC-137276]"
target_under_test = "P. falciparum stage V gametocytes"
value_observed = -3.804


Where do the numbers come from? From paper PMC4552634.
